Test system: CAKI-1 renal
Assay: NCI tumour cell line growth inhibition, 48 h
GI50 overview
measurementLabel: GI50

>  <compound>
CC1CN=C(c2cccc(-c3ccc(-c4ccccc4)o3)c2)N1 (centres undefined)

>  <measurementLabel>
GI50

>  <reading>
2550 nM

$$$$
>  <compound>
COC(=O)[C@]12CC[C@@H](C(=O)/C=C/c3cccnc3)[C@@H]1[C@H]1CC[C@@H]3[C@@]4(C)C/C(=C/c5cccnc5)C(=O)C(C)(C)[C@@H]4CC[C@@]3(C)[C@]1(C)CC2

>  <measurementLabel>
GI50

>  <reading>
716 nM

$$$$
>  <compound>
COC(=O)CCC1=C(C)C(C)=N/C1=C\c1[nH]c(-c2ccc[nH]2)cc1OC

>  <measurementLabel>
GI50

>  <reading>
338 nM

$$$$
>  <compound>
CC(=O)O[C@H]1[C@@H]2OC(=O)C3(CC3)C2C[C@H]2O[C@]2(C)CC/C=C(\C)CCC[C@@H]1C (some centres undefined)

>  <measurementLabel>
GI50

>  <reading>
19800 nM

$$$$
